Target Entity: T1, AA Peptide (fluorescence polarization), AAKLDEESILKQ{LYS(FITC)}
T1 peptide: AAKLDEESILKQK(FITC)
Test Protocol: fluorescence polarization, FITC peptide titrated with protein
No end group written: not given here. *: point of attachment. FITC = O=C1OC2(c3ccc(O)cc3Oc3cc(O)ccc32)c2ccc(NC(=S)*)cc21
Provide the recorded pKd for the entries that follow.
Answers are plain numbers, as −log10 of the molar value.

[[record]]
binder = "PS557 (other, Natural ClpS parent protein; also called WT; wild-type protein) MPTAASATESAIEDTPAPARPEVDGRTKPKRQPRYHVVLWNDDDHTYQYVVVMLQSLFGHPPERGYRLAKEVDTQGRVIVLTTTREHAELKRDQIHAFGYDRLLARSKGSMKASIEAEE"
quantitative_result = 5.00

[[record]]
binder = "PS857 (designed binder, Variant of PS557; also called N41D, V72M, L68M) MPTAASATESAIEDTPAPARPEVDGRTKPKRQPRYHVVLWDDDDHTYQYVVVMLQSLFGHPPERGYRMAKEMDTQGRVIVLTTTREHAELKRDQIHAFGYDRLLARSKGSMKASIEAEE"
quantitative_result = 4.82

[[record]]
binder = "PS816 (designed binder, Variant of PS557; also called N41D, V72M) MPTAASATESAIEDTPAPARPEVDGRTKPKRQPRYHVVLWDDDDHTYQYVVVMLQSLFGHPPERGYRLAKEMDTQGRVIVLTTTREHAELKRDQIHAFGYDRLLARSKGSMKASIEAEE"
quantitative_result = 5.12


Sure, the documented pKd for PS934 (designed binder, Variant of PS557; also called N41D, V72M, L68M, P62R) MPTAASATESAIEDTPAPARPEVDGRTKPKRQPRYHVVLWDDDDHTYQYVVVMLQSLFGHPRERGYRMAKEMDTQGRVIVLTTTREHAELKRDQIHAFGYDRLLARSKGSMKASIEAEE is 5.27
